- test: NCI Yeast Anticancer Drug Screen. Data for the mlh1 rad18 strain (AID 175)
- applied_conditions: S. cerevisiae mlh1 rad18 strain growth inhibition; at 50.0 µM (retest, dose inferred, filed as 5.0); active compounds read high
About 79,000 compounds went through this panel and 15% of them were active in at least one assay; those are over-represented in the sample as a whole.
readout_kind: growth inhibition (%)
Answer in %, number only, no unit symbol.

>>> value_reported("[O-][n+]1c2c(cc3ccccc31)Cc1ccccc1-2")
20

Data request: Can you share its growth inhibition? I mean this compound: `Cc1cc(NC(=S)SCc2ccc3c(c2)OCO3)ccc1Br`
Data returned: 98

Data request: Can you share its growth inhibition? I mean this compound: `O=c1[nH]c2c([N+](=O)[O-])cc(Cl)cc2nc1/C=C(\O)c1ccccn1`
Data returned: 46

Data request: Can you share its growth inhibition? I mean this compound: COc1cc2c(cc1O)C(O)CCCC2 (configuration not stated)
Data returned: -108

====

- test: NCI Yeast Anticancer Drug Screen. Data for the mec2-1 strain (AID 157)
- applied_conditions: S. cerevisiae mec2-1 strain, at 50.0 µM, active compounds read high
The panel holds about 79,000 compounds, 15% with a hit somewhere; the sample as a whole holds those more often.
As shown below, each of these molecules has a reported growth inhibition value.
Answer in %, number only, no unit symbol.

Solved cases below.
>>> value_reported("Nc1ccc(C(=O)Oc2cccccc2=O)cc1")
42.9
>>> value_reported("CC1COC(c2cn[nH]c2C(N)=O)C1O (configuration not stated)")
21
>>> value_reported("O=C(Nc1ccccc1C(=O)NC(=O)c1ccccc1NC(=O)c1ccccc1)c1ccccc1")
57.5
>>> value_reported("C=C(CN(C)C)C(=O)c1ccc(C)cc1C")
99.5
>>> value_reported("C=C1C(C2(C)C(OC(C)=O)CC(=O)OC(C)(COC(C)=O)C2CC(=O)OC)C(OC=O)C(OC(=O)C(O)C(C)CC)C2(C)C(c3ccoc3)CC(=O)C12O (configuration not stated)")
68.7
>>> value_reported("CN(C)c1ccc(C=Nc2cncc3ccccc23)cc1")
-18.6
>>> value_reported("O=C(CCCCOCCCCC(=O)OCC1CCCO1)OCC1CCCO1 (configuration not stated)")
16.9
>>> value_reported("CCC1(CC(=O)O)OCCc2c1[nH]c1c(C)c(Cl)ccc21 (configuration not stated)")
98.1

Data request: Can you share its growth inhibition? I mean this molecule: `c1ccc2c(c1)oc1cc3ccncc3cc12`
Data returned: 86.3

Data request: Can you share its growth inhibition? I mean this molecule: O=C(O)C1C2CC3CC(C2)CC1C3 (configuration not stated)
Data returned: 5.85

Data request: Can you share its growth inhibition? I mean this molecule: `COc1ccc2c(c1)C(O)=C(CC=C(C)C)C(=O)C2=O`
Data returned: 35

Data request: Can you share its growth inhibition? I mean this molecule: CCCC(C)(O)C(C)CC (configuration not stated)
Data returned: 9.3

====

As shown below, each of these compounds has a reported growth inhibition value.
- test: NCI Yeast Anticancer Drug Screen. Data for the sgs1 mgt1 strain (AID 161);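 further: 0% = growth of cultures given vehicle only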
- applied_conditions: S. cerevisiae sgs1 mgt1 strain, at 50.0 µM, active compounds read high
The panel holds about 79,000 compounds, 15% with a hit somewhere; the sample as a whole holds those more often.
Answer in %, number only, no unit symbol.

Solved cases below.
>>> value_reported("CCN(CC)C(=S)n1c(=S)nc(N(CC)CC)sc1=S")
92.5
>>> value_reported("C(=N\\Nc1c2ccccc2nc2ccccc12)/c1ccc2c(c1)OCO2")
99.4
>>> value_reported("C[C@@H]1CN(CC2COc3ccccc3O2)[C@@H](C)CN1CC1COc2ccccc2O1 (some centres not stated)")
97.4
>>> value_reported("SCCc1ccccn1")
3.65
>>> value_reported("Cc1[nH]c2ccccc2c1C1=CC2(C)Nc3ccccc3C2C(C)(C)C1 (configuration not stated)")
92.3

Data request: Can you share its growth inhibition? I mean this compound: `CN(C)c1ccc(C=Nc2cncc3ccccc23)cc1`
Data returned: -12.8

====

- test: NCI Yeast Anticancer Drug Screen. Data for the sgs1 mgt1 strain (AID 161);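 further: 0% = growth of cultures given vehicle only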
- applied_conditions: S. cerevisiae sgs1 mgt1 strain, at 50.0 µM (retest, dose inferred, filed as 5.0)
- Description: Growth inhibition of yeast strains with defined genetic alterations is measured as a screen for potential anti-cancer activity. Selected strains with alterations in DNA damage repair or cell cycle control were exposed to compounds and growth inhibition was measured relative to vehicle treated controls. The strain used in this assay is sgs1 mgt1
About 79,000 compounds went through this panel and 15% of them were active in at least one assay; those are over-represented in the sample as a whole. Activity calls are given as the source filed them. Rule as the data show it: active = growth inhibition above about 70%; inactive = the rest.
Permitted responses: true (1) = active, false (0) = inactive

>>> class_assignment("CCOc1ccc2nc([NH-])sc2c1.CCOc1ccc2nc([NH-])sc2c1.[Cl][Pt+2][Cl]")
"false (0)"
>>> class_assignment("Clc1ccc(/C(=C/c2ccccc2)Cn2ccnc2)cc1")
"true (1)"
>>> class_assignment("C1=Nc2ccccc2/C1=C/c1ccccc1")
"false (0)"

Data request: Which outcome was entered for the compound `CC(C)c1cc(=O)c2cc3[nH]c4ccccc4c3cc2[nH]1` in this test?
Data returned: true (1)

Data request: Which outcome was entered for the compound CCCCN(Cc1ccccc1)CC(O)c1cc2c(c3ccccc13)CCCC2 (stereo unspecified) in this test?
Data returned: true (1)

Data request: Which outcome was entered for the compound CC(C)c1ccc2c(c1)CCC1C(C)(CN)CCCC21C (stereo unspecified) in this test?
Data returned: true (1)

====

- test: NCI Yeast Anticancer Drug Screen. Data for the mec2-1 strain (AID 157)
- applied_conditions: S. cerevisiae mec2-1 strain, at 50.0 µM
The panel holds about 79,000 compounds, 15% with a hit somewhere; the sample as a whole holds those more often. Active and inactive are the calls of the source. Rule as the data show it: active = growth inhibition above about 70%; inactive = the rest.
Permitted responses: class 1 = active, class 0 = inactive

# count of solved cases: 4
>>> class_assignment("C[N+](C)(C)CCCCCCCCCCC(=O)N/N=C/c1ccc([N+](=O)[O-])o1")
"class 0"
>>> class_assignment("O=[N+]([O-])c1ccc2c(c1)/C(=N\\O)c1cc(Br)ccc1-2")
"class 1"
>>> class_assignment("Ic1[nH]c(I)c(I)c1I")
"class 1"
>>> class_assignment("CC(/C=C/c1cccc(C)c1)=N\\NC(N)=S")
"class 0"

Data request: Which outcome was entered for the compound NC(=O)C1CCCN1C(=O)C1CCCN(Cc2ccc(CN3CCCC(C(=O)N4CCCC4C(N)=O)C3)cc2)C1 (stereo unspecified) in this test?
Data returned: class 1

Data request: Which outcome was entered for the compound `COc1ccccc1C(=O)N(Cc1ccccc1)c1ccc(Cl)c(C(=O)OC(C)C)c1` in this test?
Data returned: class 0

====

- test: NCI Yeast Anticancer Drug Screen. Data for the cln2 rad14 strain (AID 165);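 further: 0% = growth equal to vehicle treated cultures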
- applied_conditions: S. cerevisiae cln2 rad14 strain, at 50.0 µM (retest, dose inferred, filed as 5.0), active compounds read high
This is part of a sample that, as a whole, favours compounds with a hit. Of some 79,000 tested, about 15% had one in any assay.
readout_kind: growth inhibition (%)
Answer in %, number only, no unit symbol.

Solved cases below.
>>> value_reported("O=[N+]([O-])c1cccc2nc3ccccc3c(NCCNCCO)c12")
98
>>> value_reported("O=c1[nH][nH]c(=O)c2c1nc(SCc1ccccc1)n2Cc1ccccc1")
-4

Data request: Can you share its growth inhibition? I mean this compound: `c1ccc(CC[n+]2csc3ccccc32)cc1`
Data returned: 35

Data request: Can you share its growth inhibition? I mean this compound: O=C(NCCCN1CC2CCCC2C1)C(C1CCCCC1)C1CCCCC1 (stereo unspecified)
Data returned: 98

Data request: Can you share its growth inhibition? I mean this compound: CC(Cc1ccccc1)NN1CCOC(c2ccccc2)C1C (stereo unspecified)
Data returned: 16

Data request: Can you share its growth inhibition? I mean this compound: `CCOC(=O)CN1C(=O)S/C(=C/c2ccc([N+](=O)[O-])o2)C1=O`
Data returned: 89

====

As shown below, each of these molecules has a reported growth inhibition value.
- test: NCI Yeast Anticancer Drug Screen. Data for the bub3 strain (AID 167)
- applied_conditions: S. cerevisiae bub3 mutant strain, at 5.0 µM (retest, dose inferred, filed as 0.5), active compounds read high
- Protocol: Growth inhibition of yeast strains with defined genetic alterations is measured as a screen for potential anti-cancer activity. Selected strains with alterations in DNA damage repair or cell cycle control were exposed to compounds and growth inhibition was measured relative to vehicle treated controls. The strain used in this assay is bub3
About 79,000 compounds went through this panel and 15% of them were active in at least one assay; those are over-represented in the sample as a whole.
Answer in %, number only, no unit symbol.

>>> value_reported("CCCCCCCCNc1nc(Cl)nc2c1cnn2C")
-5

Data request: Can you share its growth inhibition? I mean this molecule: O=C1C=CC(Nc2cccc([N+](=O)[O-])c2)C1Nc1cccc([N+](=O)[O-])c1 (stereo not drawn)
Data returned: 19

Data request: Can you share its growth inhibition? I mean this molecule: Cc1ccc(N2CC(O)CN(c3ccc(C)cc3)CC(O)C2)cc1 (stereo not drawn)
Data returned: 3

Data request: Can you share its growth inhibition? I mean this molecule: `O=[N+]([O-])c1ccccc1N=Nc1c(O)[nH]c2ccc(S(=O)(=O)O)cc12`
Data returned: 87

Taken from PubChem BioAssay (NCI).
